These entries and their values trace back to ChEMBL document CHEMBL1201862.

Tested on: UACC-62
Experiment: NCI tumour cell line growth inhibition, 48 h
Active and inactive are the calls of the source. Cut-off read from the data, not from the text of the source: active = GI50 up to about 1.1 µM and inactive = higher.
reportedEndpoint: GI50

In plain terms, C/C(CC1SCCCS1)=C(/C)CC1SCCCS1 has a documented GI50 of > 100 µM (inactive)

In plain terms, Cc1ccc(NC(=O)C(=O)C(C#N)c2ccccc2C)cc1C (centres undefined) has a documented GI50 of > 100 µM (inactive)

In plain terms, O=C1C(=Cc2ccc(O)cc2)N=C(c2ccccc2)N1n1c(-c2ccccc2)nc2ccccc2c1=O has a documented GI50 of 97.1 µM (inactive)

In plain terms, O=C(N/N=C/c1ccc([N+](=O)[O-])cc1)c1cccc2nc3ccccc3nc12 has a documented GI50 of > 100 µM (inactive)

In plain terms, CCOC(=O)C1CCCCN1C(=O)Cc1c[nH]c2ccccc12 (centres undefined) has a documented GI50 of 45.4 µM (inactive)

In plain terms, O=C(O)c1ccccc1[Se][Se]c1ccccc1C(=O)O has a documented GI50 of 27.5 µM (inactive)

In plain terms, O=C1CC2(CCN(Cc3ccccc3)CC2)C(=O)N1N1CCCCC1 has a documented GI50 of > 100 µM (inactive)

In plain terms, COc1ccc(-c2nc(N)c(C#N)c3c2CCSc2ccc(C)cc2-3)cc1OC has a documented GI50 of 10.9 µM (inactive)

In plain terms, Nc1nc(N)c2ncn(CC3CCC(CO)C3)c2n1 (centres undefined) has a documented GI50 of > 100 µM (inactive)
